Where these numbers come from: patent US7550257B2

Target: muHCN2 (Mus musculus, UniProt O88703)
Construct: expressed in transfected cells
Sequence (O88703 whole entry): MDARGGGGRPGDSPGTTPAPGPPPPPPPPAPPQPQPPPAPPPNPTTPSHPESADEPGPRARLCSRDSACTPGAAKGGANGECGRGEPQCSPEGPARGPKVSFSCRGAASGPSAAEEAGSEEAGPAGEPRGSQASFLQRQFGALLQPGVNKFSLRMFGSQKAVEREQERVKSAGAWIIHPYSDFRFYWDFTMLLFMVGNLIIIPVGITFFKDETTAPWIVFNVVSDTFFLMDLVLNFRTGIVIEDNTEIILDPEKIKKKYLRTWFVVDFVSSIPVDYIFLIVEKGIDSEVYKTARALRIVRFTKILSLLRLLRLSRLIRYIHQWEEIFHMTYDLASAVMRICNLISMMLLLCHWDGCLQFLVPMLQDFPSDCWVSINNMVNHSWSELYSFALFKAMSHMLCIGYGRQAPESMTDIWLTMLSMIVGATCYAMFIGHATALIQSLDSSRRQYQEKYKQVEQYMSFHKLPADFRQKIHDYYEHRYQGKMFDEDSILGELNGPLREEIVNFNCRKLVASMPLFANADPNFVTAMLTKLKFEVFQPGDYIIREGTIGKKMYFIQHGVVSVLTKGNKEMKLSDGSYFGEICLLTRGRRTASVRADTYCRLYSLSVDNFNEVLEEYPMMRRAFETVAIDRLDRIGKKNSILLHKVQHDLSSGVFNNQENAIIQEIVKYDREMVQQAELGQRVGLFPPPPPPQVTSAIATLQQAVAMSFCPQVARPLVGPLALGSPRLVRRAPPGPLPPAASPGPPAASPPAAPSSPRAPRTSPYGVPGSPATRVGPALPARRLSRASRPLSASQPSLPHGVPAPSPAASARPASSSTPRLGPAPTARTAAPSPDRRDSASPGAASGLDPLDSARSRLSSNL
Assay: FLIPR membrane potential assay (DiBac4(3)) with transfected HCN cells
Type: cell-based, murine
Details: muHCN2-transfected CHO cells, relative change in fluorescence from the time 60 seconds, mean of 6 wells per concentration, read-out: IC50 of zatebradine (inhibition calculated from relative change in fluorescence)
measured.attribute: IC50 (µM)
// return numeric value only (unit: µM, not printed)

Which IC50 is listed for COc1ccc(CCN(C)CCCN2CCc3cc(OC)c(OC)cc3CC2=O)cc1OC ?
26

---

Target: muHCN2 (Mus musculus, UniProt O88703)
Construct: expressed in transfected cells
Assay: Patch-clamp (electrophysiological) examination in the same cells
Type: cell-based, murine
Details: determined electrophysiologically in the same cells
measured.attribute: IC50

Which IC50 is listed for COc1ccc(CCN(C)CCCN2CCc3cc(OC)c(OC)cc3CC2=O)cc1OC ?
31 µM
